# System: WaGa
# experimental.protocol: qHTS assay to identify novel small-molecules to repurpose for Merkel cell carcinoma treatment (AID 1296009); further: nearly all actives have a fitted effect of over 60% in size
# assay.context: MCC and control cell lines, CellTiter-Glo viability, 72 h; series mostly up to 46 µM
# Text: MCC is a rare and aggressive neuroendocrine skin cancer with limited treatment options. Approximately 80% of MCCs have the Merkel cell polyomavirus (MCPyV) DNA integrated into the host genome (virus-positive: VP-MCC) and viral oncogenes drive oncogenesis. The remaining MCCs are virus-negative (VN-MCC) and are caused by UV mutagenesis. […] Using cell viability as a readout (CellTiter-Glo assay) we found both overlapping and distinct drugs that can be repurposed for the treatment of VP-MCC and VN-MCC. […]
Results filed as inconclusive are left out. Activity calls are given as the source filed them. The call rests on the fitted dose curve; in most records, active means well fitted inhibition curve with a large enough effect; inconclusive means small, poorly fitted or top-dose-only effect; inactive means flat fitted curve, though single readings scatter.
Possible outcomes: active, inactive

{"compound": "COc1cc(NC(=O)c2ccc(-c3ccc(Cl)cc3)o2)cc(OC)c1", "group.label": "inactive"}
{"compound": "C[C@@H](O)[C@H]1C(=O)N2C(C(=O)O)=C(S[C@@H]3CN[C@H](C(=O)N(C)C)C3)[C@H](C)[C@H]12", "group.label": "inactive"}
{"compound": "OC[C@H]1O[C@@H](Oc2cc(O)cc(C=Cc3ccc(O)cc3)c2)[C@H](O)[C@@H](O)[C@H]1O", "group.label": "inactive"}
{"compound": "COC1CCC(N(C(=O)C2CCC(C)CC2)c2cc(C3=CCCCC3)sc2C(=O)O)CC1 (centres undefined)", "group.label": "inactive"}
{"compound": "Cc1ccc(C(C)(O)c2nc3ccccc3s2)c(C)c1 (centres undefined)", "group.label": "active"}
{"compound": "CC(C)C(C)C=CC(C)C1CCC2C3=CC=C4CC(O)CCC4(C)C3CCC21C (centres undefined)", "group.label": "inactive"}
{"compound": "C[N+](C)(C)CCCCCC[N+](C)(C)C", "group.label": "inactive"}
{"compound": "CN(C)Cc1cccc(N=C(c2ccccc2)c2c(O)[nH]c3cc(C(=O)N(C)C)ccc23)c1", "group.label": "inactive"}
{"compound": "COc1ccc(C2CC(c3ccccc3)=NN2c2ccc(S(N)(=O)=O)cc2)cc1 (centres undefined)", "group.label": "inactive"}
{"compound": "COc1cc(N2CCC(N3CCN(C)CC3)CC2)ccc1Nc1ncnc(Nc2ccccc2S(=O)(=O)C(C)C)n1", "group.label": "inactive"}
{"compound": "CC1(C)CCC(CN2CCN(c3ccc(C(=O)NS(=O)(=O)c4ccc(NCC5CCOCC5)c([N+](=O)[O-])c4)c(Oc4cnc5[nH]ccc5c4)c3)CC2)=C(c2ccc(Cl)cc2)C1", "group.label": "inactive"}
{"compound": "CC(=O)N(C)C1(c2ccccc2)CCN(CCC[C@]2(c3ccc(Cl)c(Cl)c3)CCCN(C(=O)c3ccccc3)C2)CC1", "group.label": "inactive"}
{"compound": "Clc1ccc(-c2nc3sccn3c2C=NOCc2ccc(Cl)c(Cl)c2)cc1", "group.label": "inactive"}
{"compound": "CN1CCN(CCOc2cc(OC3CCOCC3)c3c(Nc4c(Cl)ccc5c4OCO5)ncnc3c2)CC1", "group.label": "inactive"}
{"compound": "COc1ccc2cc(-c3nc(-c4ccc(S(C)=O)cc4)[nH]c3-c3ccncc3)ccc2c1 (centres undefined)", "group.label": "inactive"}
{"compound": "CC#CCn1c(N2CCC[C@@H](N)C2)nc2c1c(=O)n(Cc1nc(C)c3ccccc3n1)c(=O)n2C", "group.label": "inactive"}
{"compound": "COc1cccc(-c2cc(=O)c3ccccc3o2)c1N", "group.label": "inactive"}
{"compound": "CCn1c(C(=O)N(C2CC2)C2CC2)cc2c3c(ncn3C)c(Nc3cc(C)n(C)n3)nc21", "group.label": "inactive"}
{"compound": "NC(=O)c1cnc(-c2ccc(C3(N)CCC3)cc2)c(-c2ccccc2)c1", "group.label": "inactive"}
